Data provenance: the supplement of paper PMC10724198

tested on: Saccharomyces cerevisiae; assay: protein stability index of tFT-peptide fusion in wild type (PSI (0-1 scale)); higher = more stable (slower turnover); conditions: genetic background: wild type;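 note: PSI derived as read-weighted mean over the 8 sorting bins, only variants exceeding 10 total reads kept, mCherry placed adjacent to the peptide and sfGFP distal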
Would you please tag the item true when its protein stability index is 0.3 or above, and false when it is below?

Would you please look over these solved cases?
LVVYLSMVACIN = false
RWLRVLLPLYFR = true
CTSCGYKSRTNN = true
VRGAVGGWRYVG = false
LVVNLSCVACIN = false

Q: # check: protein stability index of ARWRVGLWRGAM is greater than or equal to 0.3
Result: true

Q: Hi team, for RLIQPLPVVFLN , is the recorded protein stability index at or above 0.3?
Result: false

Q: Test whether the sequence RVTRLDAIYFRI records protein stability index of 0.3 or higher.
Result: true

Q: Could you please find out whether RVPRLDAIYFRI has protein stability index that meets 0.3 or exceeds it?
Result: true

Q: Does the sequence PDKRPHLIKLLN have recorded protein stability index that is 0.3 or more?
Result: false
